test system: MDA-MB-231 breast; assay: NCI tumour cell line growth inhibition, 48 h
Measure Name: TGI

* NCCCN(CCCN)CCN(CCN(CCCN)CCCN)CCN(CCCN)CCCN | > 100 µM
* O=C1c2ccccc2-c2c1c1ccccc1c(=O)n2CCN1CCOCC1 | > 100 µM
* CCCOC(=O)N1CCN(/[N+]([O-])=N/Oc2ccc([N+](=O)[O-])cc2[N+](=O)[O-])CC1 | 4.83 µM
* CCN(CC)Cc1ccc(Nc2nccc(-c3cnn4ncccc34)n2)cc1 | > 25 µM
* CC1(C)CC(=O)c2c(nc3ccc4ccccc4c3c2-c2ccc(NC(=O)CCCCCCCCC(=O)Nc3ccc(-c4c5c(nc6ccc7ccccc7c46)CC(C)(C)CC5=O)cc3)cc2)C1 | > 100 µM
* C(CCCCc1nnc(N2CCCCC2)o1)CCCc1nnc(N2CCCCC2)o1 | > 100 µM
* COc1c(O)cc(O)c2c(=O)cc(-c3ccccc3)oc12 | > 100 µM
* COc1ccc(-c2cc(-c3ccc(Nc4ccnc5cc(Cl)ccc45)cc3)[nH]c(=O)c2C#N)c2ccccc12 | 51.1 µM

Where these numbers come from: PubChem BioAssay (NCI)
